target: HLA-B*58:01; assay: IEDB peptide-MHC binding, purified MHC/competitive/fluorescence; filed as Kd, often an IC50 or EC50 that approximates it; bounds were set here for any values at or beyond the usual limits of such assays; conditions: source organism: Bacillus cereus G9241
reportedEndpoint: Kd (nM)

sequenceEntry: KTNRTGLLM
targetUnderTest: HLA-B*58:01
measured: 91.3

###

target: HLA-A*02:16; assay: IEDB peptide-MHC binding, purified MHC/direct/fluorescence; filed as Kd, often an IC50 or EC50 that approximates it; bounds were set here for any values at or beyond the usual limits of such assays; settings: source organism: Limestone Canyon virus
reportedEndpoint: Kd

sequenceEntry: YKSRCYVGL
reportedEndpoint: Kd
measured: ≥ 20 µM

###

molecular target: HLA-B*58:01; assay: IEDB peptide-MHC binding, purified MHC/competitive/fluorescence; filed as Kd, often an IC50 or EC50 that approximates it; bounds were set here for any values at or beyond the usual limits of such assays; conditions: source organism: Zaire ebolavirus

sequenceEntry: YSGNIVHRY
Kd, nM: 64.7

###

molecular target: HLA-B*44:03; assay: IEDB peptide-MHC binding, purified MHC/competitive/radioactivity; filed as Kd, often an IC50 or EC50 that approximates it; bounds were set here for any values at or beyond the usual limits of such assays; details: source organism: Dengue virus 3 Sri Lanka/1266/2000
pKd: −log10 of the molar value.
reportedEndpoint: pKd

sequenceEntry: EEFWKLVDR
reportedEndpoint: pKd
measured: 5.51

###

target: HLA-A*69:01; test: IEDB peptide-MHC binding, purified MHC/direct/fluorescence; filed as Kd, often an IC50 or EC50 that approximates it; bounds were set here for any values at or beyond the usual limits of such assays; conditions: source organism: Brucella abortus

sequenceEntry: GRDHVRVTL
Kd: ≥ 20 µM

###

target: HLA-A*26:01; experiment: IEDB peptide-MHC binding, purified MHC/competitive/fluorescence; filed as Kd, often an IC50 or EC50 that approximates it; bounds were set here for any values at or beyond the usual limits of such assays; conditions: source organism: Vibrio parahaemolyticus AQ3810

sequenceEntry: KVGYFQHGA
Kd: ≥ 20 µM

###

Entries annotated with measured pKd
target: HLA-A*02:11; test: IEDB peptide-MHC binding, purified MHC/direct/fluorescence; filed as Kd, often an IC50 or EC50 that approximates it; bounds were set here for any values at or beyond the usual limits of such assays; conditions: source organism: Ravn virus - Ravn, Kenya, 1987
pKd: −log10 of the molar value.

sequenceEntry: PQVLGGLSF
pKd: ≤ 4.70
--
sequenceEntry: YSGNIVHRY
pKd: ≤ 4.70

###

target: HLA-B*57:01; test: IEDB peptide-MHC binding, purified MHC/direct/fluorescence; filed as Kd, often an IC50 or EC50 that approximates it; bounds were set here for any values at or beyond the usual limits of such assays; settings: source organism: dengue virus type 3
reportedEndpoint: Kd (nM)

sequenceEntry: ICSAVPVHW
targetUnderTest: HLA-B*57:01
measured: 417

###

target: HLA-B*07:02; experiment: IEDB peptide-MHC binding, purified MHC/direct/fluorescence; filed as Kd, often an IC50 or EC50 that approximates it; bounds were set here for any values at or beyond the usual limits of such assays; conditions: source organism: Corynebacterium glutamicum
pKd: −log10 of the molar value.

sequenceEntry: FAAAAARTL
targetUnderTest: HLA-B*07:02
pKd: 6.91
